tested on: Enzyme of the genus Neurospora (glycerol oxidase); assay: Inhibition of enzyme activity by 1 mM inhibitors (4-AA method); assay type: biochemical, Neurospora crassa KY-462; parameters: key: % of activity without inhibitor (no inhibitor = 100); details: 1 mM inhibitor; Enzyme of the genus Neurospora; 4-AA method
Tick MET if Enzyme activity on adding inhibitor (activity with no inhibitor defined as 100) is 20 or greater. Tick NOT MET if Enzyme activity on adding inhibitor (activity with no inhibitor defined as 100) is less than 20.

As a guide, the following entries are already answered.
N[C@@H](CS)C(=O)O | MET
[Cl][Hg][Cl] | MET
O=C(O)CN(CCN(CC(=O)O)CC(=O)O)CC(=O)O | MET
O=C(O)c1cc[c]([Hg][Cl])cc1 [PCMB, p-chloromercuribenzoate] | MET
O=S(=O)([O-])[O-].[Fe+2] | NOT MET

Prompt: Form field: Enzyme activity on adding inhibitor (activity with no inhibitor defined as 100) at least 20? Entry: Cl.NO [NH2 OH--HCl]
Response: NOT MET

Prompt: Please answer likewise for O=S(=O)([O-])[O-].[Zn+2]
Response: MET

These data points were gathered from patent US4202941A.
